Protocol notes: Cytotoxicity against mouse BV2 cells assessed as cell viability at 5 uM measured after 24 hrs by MTT assay relative to control
Assay type: cell-based, BV-2
Assay setup: read-out: Activity
Quantity measured: viability at 24 h, 5 µM (%)
Return type: number; implicit unit %.

Query: Param item = CC1=CC(O)(C[C@@H](C)[C@]2(C)CC=C3C4=CC[C@H]5C(C)(C)[C@H](O)CC[C@]5(C)[C@@H]4CC[C@]32C)OC1=O (stereo partly specified) ; retrieve measured viability at 24 h, 5 µM.
Result: 154

###

The reader will find reported viability at 24 h, 20 µM values listed item by item below.
Protocol notes: Cytotoxicity against mouse BV2 cells assessed as cell viability at 20 uM measured after 24 hrs by MTT assay relative to control
Assay type: cell-based, BV-2
Assay setup: read-out: Activity

Molecule: C/C(=C\CC[C@@H](C)[C@H]1CC[C@@]2(C)[C@@H]3CC[C@H]4C(C)(C)[C@@H](O)CC[C@@]45C[C@@]35CC[C@]12C)C(=O)O
viability at 24 h, 20 µM: 35.2%

Query: Param item = `C/C(=C\C(=O)C[C@@H](C)[C@H]1CC[C@@]2(C)C3=CC[C@H]4C(C)(C)C(=O)CC[C@]4(C)[C@@H]3CC[C@]12C)C(=O)O` ; retrieve measured viability at 24 h, 20 µM.
Result: 19.4%

Query: Please give the result for CC1=CC(O)(C[C@@H](C)[C@H]2CC[C@@]3(C)C4=CC[C@H]5C(C)(C)C(=O)CC[C@]5(C)[C@@H]4CC[C@]23C)OC1=O (stereo partly specified) too.
Result: 15.9%

Query: Please give the result for `C/C(=C\CC[C@@H](C)[C@H]1CC[C@@]2(C)[C@@H]3CC[C@H]4C(C)(C)C(=O)CC[C@@]45C[C@@]35CC[C@]12C)C(=O)O` too.
Result: 21%

Query: Please give the result for `C/C(=C\[C@H](O)C[C@@H](C)[C@H]1CC[C@@]2(C)C3=CC[C@H]4C(C)(C)C(=O)CC[C@]4(C)[C@@H]3CC[C@]12C)C(=O)O` too.
Result: 125%

Query: Please give the result for `C/C(=C\CO)[C@@H](O)C[C@@H]1[C@@]2(C)CCCC(C)(C)[C@@H]2CC[C@@]1(C)O` too.
Result: 122%

Query: Please give the result for CC1=CC(O)(C[C@@H](C)[C@]2(C)CC=C3C4=CC[C@H]5C(C)(C)[C@H](O)CC[C@]5(C)[C@@H]4CC[C@]32C)OC1=O (stereo partly specified) too.
Result: 9.7%
